target-under-test: human isoforms of GABAA (α3ß2γ2) receptors (Homo sapiens, UniProt P18507+P34903)
Construct: expressed in transfected cells
Sequence (P34903 29-492): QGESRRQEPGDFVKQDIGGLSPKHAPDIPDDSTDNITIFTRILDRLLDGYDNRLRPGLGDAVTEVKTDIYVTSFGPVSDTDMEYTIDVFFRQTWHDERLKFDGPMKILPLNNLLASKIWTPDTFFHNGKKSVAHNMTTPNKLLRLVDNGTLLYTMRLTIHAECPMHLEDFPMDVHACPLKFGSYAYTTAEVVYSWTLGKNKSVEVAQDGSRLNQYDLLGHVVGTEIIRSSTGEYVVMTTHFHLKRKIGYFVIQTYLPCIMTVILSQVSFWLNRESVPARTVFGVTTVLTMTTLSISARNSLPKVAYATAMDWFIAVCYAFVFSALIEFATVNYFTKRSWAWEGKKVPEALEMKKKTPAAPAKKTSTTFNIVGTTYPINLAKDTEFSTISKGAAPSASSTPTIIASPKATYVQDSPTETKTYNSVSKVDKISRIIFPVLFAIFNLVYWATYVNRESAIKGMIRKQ
Sequence (P47870 25-512 partner limits assumed): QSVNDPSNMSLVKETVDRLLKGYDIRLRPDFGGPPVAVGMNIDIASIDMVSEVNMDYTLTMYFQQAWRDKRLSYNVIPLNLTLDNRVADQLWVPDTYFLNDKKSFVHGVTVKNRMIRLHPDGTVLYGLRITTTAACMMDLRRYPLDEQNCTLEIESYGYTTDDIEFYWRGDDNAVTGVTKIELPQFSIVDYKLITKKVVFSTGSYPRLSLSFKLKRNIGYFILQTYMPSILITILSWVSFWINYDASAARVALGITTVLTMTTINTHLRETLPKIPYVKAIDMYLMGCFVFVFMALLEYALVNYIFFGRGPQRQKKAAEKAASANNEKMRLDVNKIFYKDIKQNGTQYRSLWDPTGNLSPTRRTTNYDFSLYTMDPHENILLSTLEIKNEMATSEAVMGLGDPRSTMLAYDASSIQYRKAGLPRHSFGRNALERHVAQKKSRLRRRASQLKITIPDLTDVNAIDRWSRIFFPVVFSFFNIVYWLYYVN
Sequence (P18507 40-475): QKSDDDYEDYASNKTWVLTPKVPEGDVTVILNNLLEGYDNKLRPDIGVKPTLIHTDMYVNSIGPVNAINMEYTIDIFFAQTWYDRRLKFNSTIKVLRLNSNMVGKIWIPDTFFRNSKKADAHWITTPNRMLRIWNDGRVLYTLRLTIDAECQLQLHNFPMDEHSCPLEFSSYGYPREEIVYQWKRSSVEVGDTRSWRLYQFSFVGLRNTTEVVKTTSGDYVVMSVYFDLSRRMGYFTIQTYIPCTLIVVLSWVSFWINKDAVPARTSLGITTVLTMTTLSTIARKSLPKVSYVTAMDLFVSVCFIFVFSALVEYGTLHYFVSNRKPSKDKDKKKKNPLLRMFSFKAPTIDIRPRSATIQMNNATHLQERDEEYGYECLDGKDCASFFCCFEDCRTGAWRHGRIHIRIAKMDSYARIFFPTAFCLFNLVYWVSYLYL
assay-details: Potentiation of GABA-evoked currents at GABAA (α3β2γ2) receptors, automated patch-clamp (QPatch), Example B1
Assay type: cell-based
protocol-conditions: Emax of potentiation; Ltk cells expressing GABAA α3β2γ2; 2.0 μM GABA; whole-cell, holding potential −80 mV; read-out: Max %
Protocol: The ability of compounds exemplified above to potentiate the effect of GABA on GABAA receptors (α3β2γ2) was determined using one or more of the methods described below. […] Modulatory effects of the compounds of this disclosure were investigated using cells stably transfected with GABA-activated channels of the GABAA (α3ß2γ2) subtype together with submaximal GABA concentrations. […] Inward currents were measured upon application of 2.0 μM GABA to patch-clamped cells for 4 s. […]
recorded-endpoint: Emax

Please give the measured Emax for this compound: NC(=O)C(NCc1ccccc1)c1cn2c(n1)CN=C(c1ccccc1F)c1cc(Cl)ccc1-2 (stereo not shown) 50 to 100%

Field entry: O=C(O)c1nc2n(c1CN1CCCCC1)-c1ccc(Cl)cc1C(c1ccccc1F)=NC2 50 to 100%

Field entry: CN(C)CCNC(=O)c1cn2c(n1)CN=C(c1ccccc1F)c1cc(Cl)ccc1-2 50 to 100%

Field entry: CCc1c(C(=O)O)nc2n1-c1ccc(Cl)cc1C(c1ccccc1F)=NC2 > 100%

Field entry: CP(C)(=O)CCCNC(=O)c1cn2c(n1)CN=C(c1ccccc1F)c1cc(Cl)ccc1-2 50 to 100%

Field entry: NCCNC(=O)c1cn2c(n1)CN=C(c1ccccc1F)c1cc(Cl)ccc1-2 > 100%

Field entry: O=C(O)c1cn2c(n1)CN=C(c1ccc(F)cc1)c1cc(Cl)ccc1-2 50 to 100%

Field entry: NC(=O)c1cn2c(n1)CN=C(c1ccccc1F)c1cc(Cl)ccc1-2 > 100%

Field entry: O=C(O)c1nc2n(c1CN1CCC1)-c1ccc(Cl)cc1C(c1ccccc1F)=NC2 > 100%

Field entry: O=C(O)c1cn2c(n1)CN=C(c1ccccc1F)c1cc(F)ccc1-2 50 to 100%

Field entry: O=C(O)c1nc2n(c1Cl)-c1ccc(Cl)cc1C(c1ccccc1F)=NC2 > 100%

Field entry: O=C(O)c1cn2c(n1)CN=C(c1ccccc1F)c1ccc(Cl)cc1-2 < 50%

Field entry: COCCOCCOCCOCCNC(=O)c1cn2c(n1)CN=C(c1ccccc1F)c1cc(Cl)ccc1-2 > 100%

Field entry: C[N+](C)(C)Cc1cn2c(n1)CN=C(c1ccccc1F)c1cc(Cl)ccc1-2 50 to 100%

Field entry: O=C(O)c1cn2c(n1)CN=C(c1ccccc1Cl)c1cc(F)ccc1-2 < 50%

Field entry: CN(C)C(=O)c1cn2c(n1)CN=C(c1ccccc1F)c1cc(Cl)ccc1-2 > 100%
